# Test Description: p53 small molecule agonists, cell-based qHTS assay with rat liver microsomes: qHTS cell viability counter screen (AID 1963580); further: nearly all actives have a fitted effect of over 45% in size
# Reported Conditions: p53RE-bla HCT-116 + rat microsomes, ATP viability, 16 h; series mostly up to 66 µM
Results filed as inconclusive are left out. Activity calls are given as the source filed them. The call rests on the fitted dose curve.
Measurement Label: outcome

c1ccc(Nc2ccc(Nc3ccccc3)cc2)cc1
inactive
NNC(=O)c1cccnc1
inactive
ClCCCCl
inactive
Nc1n[nH]c(N)n1
inactive
CC(C)(C)c1ccc(OP(=O)(Oc2ccccc2)Oc2ccccc2)cc1
inactive
CC(C)(C)c1cc([N+](=O)[O-])cc(C(C)(C)C)c1O
inactive
CCN1CCCC1CNC(=O)C(O)(c1ccccc1)c1ccccc1 (centres undefined)
inactive
CC(=O)Nc1ccc2c(c1)Cc1ccccc1-2
inactive
COc1cc(Cl)c(OC)cc1Cl
inactive
CC(C)[C@@H](Nc1ccc(C(F)(F)F)cc1Cl)C(=O)OC(C#N)c1cccc(Oc2ccccc2)c1 (some centres undefined)
inactive

Prompt: Given the entry `Cn1[nH]nnc1=S` , report its measured outcome.
Response: inactive
